Source listed as the supplement of paper PMC6555819.

tested on: RARg:RXRa (NR concentration 270 nM, RXRa partner concentration 90 nM); test: PBM binding z-score (relative to random genomic background probes); higher = stronger binding; sequences stand for … in GC…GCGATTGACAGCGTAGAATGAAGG

{"chain-sequence": "CCTCGGAGGACAGAAGGTCAGAGCAGTCCGCTTT", "PBM binding z-score": 3.53}
{"chain-sequence": "CCTCGGAGGACCGAAGGTCAGAGCTGTCCGCTTT", "PBM binding z-score": 2.03}
{"chain-sequence": "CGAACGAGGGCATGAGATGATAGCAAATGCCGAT", "PBM binding z-score": 1.28}
{"chain-sequence": "CGTCCAAGGACATAGGAGGTCAGTGAAGACAGAT", "PBM binding z-score": 2.46}
{"chain-sequence": "AGTCAAAGTGCACTAGGTAACGTAAGATTCAGCT", "PBM binding z-score": 0.916}
{"chain-sequence": "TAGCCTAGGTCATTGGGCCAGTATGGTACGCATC", "PBM binding z-score": 3.75}
{"chain-sequence": "CCTTACGCGTCACTGACAGGTTATAGCATTTGGA", "PBM binding z-score": 0.439}
{"chain-sequence": "GTACCAAGGTGAATCGGTCGTTGATGAGTAGGCG", "PBM binding z-score": 1.17}
{"chain-sequence": "TCTAGTTGGTCACGGAGGTCTCACACGACGGGTA", "PBM binding z-score": 1.31}
{"chain-sequence": "CCTTACGGGTCACTCCAGGTTATAACATCGGAGT", "PBM binding z-score": 4.24}
{"chain-sequence": "TCGAGTAGGTTACCAATGGGTCATTCAGCTTTCT", "PBM binding z-score": 3.58}
{"chain-sequence": "GATACAGGGTCAGCTAGTGGCCAGAGTATGGAAA", "PBM binding z-score": 4.73}
